All values here come from ChEMBL document CHEMBL1148870.

- target.entity: Vascular endothelial growth factor receptor 1 (Homo sapiens, UniProt P17948)
- Sequence (P17948 whole entry): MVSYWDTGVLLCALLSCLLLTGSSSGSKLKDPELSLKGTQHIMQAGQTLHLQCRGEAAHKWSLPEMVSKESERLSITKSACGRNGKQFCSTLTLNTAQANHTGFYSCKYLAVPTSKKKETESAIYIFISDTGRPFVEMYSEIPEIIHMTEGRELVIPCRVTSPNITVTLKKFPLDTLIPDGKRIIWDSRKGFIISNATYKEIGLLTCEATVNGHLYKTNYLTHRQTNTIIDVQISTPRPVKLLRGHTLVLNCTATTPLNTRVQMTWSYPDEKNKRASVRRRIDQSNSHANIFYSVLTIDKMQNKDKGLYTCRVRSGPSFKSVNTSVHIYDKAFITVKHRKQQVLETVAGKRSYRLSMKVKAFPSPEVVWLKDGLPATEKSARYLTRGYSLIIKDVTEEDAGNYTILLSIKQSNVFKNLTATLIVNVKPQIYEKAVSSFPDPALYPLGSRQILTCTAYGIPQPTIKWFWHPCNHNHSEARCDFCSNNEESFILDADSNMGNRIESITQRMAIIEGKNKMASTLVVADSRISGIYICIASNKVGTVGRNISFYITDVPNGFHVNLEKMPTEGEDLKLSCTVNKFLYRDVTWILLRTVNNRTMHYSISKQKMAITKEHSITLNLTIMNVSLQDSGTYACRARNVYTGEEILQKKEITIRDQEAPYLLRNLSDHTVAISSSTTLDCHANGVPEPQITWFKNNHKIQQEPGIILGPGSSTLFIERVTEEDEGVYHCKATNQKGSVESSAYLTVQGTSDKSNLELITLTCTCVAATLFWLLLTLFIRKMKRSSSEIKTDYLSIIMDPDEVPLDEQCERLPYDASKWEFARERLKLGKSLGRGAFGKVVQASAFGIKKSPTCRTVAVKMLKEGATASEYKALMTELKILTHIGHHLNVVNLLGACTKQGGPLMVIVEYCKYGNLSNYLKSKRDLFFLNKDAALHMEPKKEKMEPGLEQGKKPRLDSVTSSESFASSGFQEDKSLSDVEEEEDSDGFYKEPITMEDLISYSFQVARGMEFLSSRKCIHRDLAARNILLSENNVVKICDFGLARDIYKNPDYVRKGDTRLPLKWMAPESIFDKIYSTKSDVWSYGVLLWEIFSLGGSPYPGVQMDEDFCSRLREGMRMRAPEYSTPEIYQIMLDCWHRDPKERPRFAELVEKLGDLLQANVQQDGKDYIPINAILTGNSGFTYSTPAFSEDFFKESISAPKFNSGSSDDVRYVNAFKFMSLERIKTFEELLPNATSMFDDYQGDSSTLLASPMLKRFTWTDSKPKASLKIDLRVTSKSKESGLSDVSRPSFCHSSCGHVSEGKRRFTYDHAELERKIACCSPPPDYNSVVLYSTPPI
- assay.details: Inhibition of VEGFR1 assessed as inhibition of phosphorylation in presence of 2 uM ATP by HTRF assay
pIC50: −log10 of the molar value.
Response key: YES means pIC50 >= 6; NO means pIC50 < 6.

Observe how each entry below is paired with its result.
Dear colleague, could you confirm whether CC(C)(C)c1ccc(NC(=O)c2nccn2CCc2ccncc2)cc1 has pIC50 at or above 6?
NO

Would you say CC(C)c1ccc(NC(=O)c2ccnn2CCc2ccncc2)cc1 shows pIC50 at minimum 6?
YES

Could you please find out whether O=C(Nc1ccc(C(F)(F)F)c(Cl)c1)c1nc2ccccc2n1CCc1ccncc1 has pIC50 that meets 6 or exceeds it?
NO

***
Is reported pIC50 greater than or equal to 6 here: O=C(Nc1ccc(Cl)cc1)c1ccnn1CCc1cccnc1
NO

Hi team, for O=C(Nc1ccc(-c2ccccc2)cc1)c1ccnn1CCc1ccncc1 , is the recorded pIC50 at or above 6?
NO

Check if pIC50 >= 6 (inclusive). Item: O=C(Nc1cccc(OC(F)(F)Cl)c1)c1ccnn1CCc1ccncc1
YES

Hi team, for O=C(Nc1ccc(Cl)cc1)c1ccnn1CCc1cnoc1 , is the recorded pIC50 at or above 6?
NO

Threshold query (pIC50 >= 6) on O=C(Nc1ccc(Cl)c(C(F)(F)F)c1)c1ccnn1CCc1ccncc1
NO

Given the entry COc1ccc(CCn2nccc2C(=O)Nc2ccc(Cl)cc2)cc1OC , answer whether its pIC50 meets or surpasses 6.
NO

Could you verify whether the entry O=C(Nc1ccc(Cl)cc1)c1ccnn1CCc1noc2ccccc12 shows pIC50 of no less than 6?
NO

Is pIC50 for Cc1nn(CCc2ccncc2)c(C(=O)Nc2ccc(OC(F)(F)F)cc2)c1C at or above 6?
NO

====

- target.entity: Vascular endothelial growth factor receptor 2 (Homo sapiens, UniProt P35968)
- Sequence (P35968 whole entry): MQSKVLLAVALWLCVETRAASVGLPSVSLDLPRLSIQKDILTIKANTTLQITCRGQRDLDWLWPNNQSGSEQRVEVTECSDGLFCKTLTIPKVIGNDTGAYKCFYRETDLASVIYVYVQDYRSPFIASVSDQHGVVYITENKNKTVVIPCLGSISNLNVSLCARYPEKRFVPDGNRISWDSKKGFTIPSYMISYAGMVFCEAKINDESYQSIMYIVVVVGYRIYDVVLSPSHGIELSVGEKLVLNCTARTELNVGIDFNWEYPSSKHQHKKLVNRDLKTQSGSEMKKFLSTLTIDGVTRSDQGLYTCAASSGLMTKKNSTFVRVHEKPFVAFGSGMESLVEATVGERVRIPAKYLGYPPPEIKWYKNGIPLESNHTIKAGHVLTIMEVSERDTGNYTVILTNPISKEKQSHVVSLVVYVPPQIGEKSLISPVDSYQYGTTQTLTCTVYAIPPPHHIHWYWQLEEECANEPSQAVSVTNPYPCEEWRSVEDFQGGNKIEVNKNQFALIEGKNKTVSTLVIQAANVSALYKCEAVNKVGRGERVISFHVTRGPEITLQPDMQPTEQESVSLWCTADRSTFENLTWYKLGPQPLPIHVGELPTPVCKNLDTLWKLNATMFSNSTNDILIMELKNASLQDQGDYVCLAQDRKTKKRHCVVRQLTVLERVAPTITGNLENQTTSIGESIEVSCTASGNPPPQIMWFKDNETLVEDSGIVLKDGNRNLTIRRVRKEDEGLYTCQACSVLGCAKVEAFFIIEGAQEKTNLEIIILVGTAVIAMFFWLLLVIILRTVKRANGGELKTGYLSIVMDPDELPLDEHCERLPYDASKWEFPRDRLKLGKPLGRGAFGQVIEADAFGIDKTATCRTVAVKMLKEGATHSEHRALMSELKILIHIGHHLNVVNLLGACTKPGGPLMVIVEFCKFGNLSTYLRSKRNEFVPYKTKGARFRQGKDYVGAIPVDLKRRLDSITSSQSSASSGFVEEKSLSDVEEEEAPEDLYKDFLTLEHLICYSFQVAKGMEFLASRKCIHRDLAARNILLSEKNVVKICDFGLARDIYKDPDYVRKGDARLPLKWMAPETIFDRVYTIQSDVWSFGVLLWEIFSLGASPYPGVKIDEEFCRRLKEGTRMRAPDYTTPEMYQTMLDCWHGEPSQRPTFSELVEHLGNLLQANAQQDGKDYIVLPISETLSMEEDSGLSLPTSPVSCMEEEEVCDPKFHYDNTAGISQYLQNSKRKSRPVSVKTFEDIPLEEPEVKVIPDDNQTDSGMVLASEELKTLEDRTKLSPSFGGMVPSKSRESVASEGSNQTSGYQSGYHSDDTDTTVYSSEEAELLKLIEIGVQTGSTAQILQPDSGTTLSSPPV
- assay.details: Inhibition of VEGFR2 assessed as inhibition of phosphorylation in presence of 2 uM ATP by HTRF assay
- Format: functional
readout.label: IC50 (nM)
One number for each entry, in nM.

IC50 reading for O=C(Nc1ccc(C(F)(F)F)c(Cl)c1)c1nccn1CCc1ccncc1 : 1310

Memo: Cc1cc(C(=O)Nc2ccc(OC(F)(F)F)cc2)n(CCc2ccncc2)n1 , reported IC50: 1190

response.value for O=C(Nc1ccc(C(F)(F)F)cc1)c1nccn1CCc1ccncc1 (field: IC50) = 470

Notebook: O=C(Nc1ccc(C(F)(F)F)cc1)c1ccnn1CCc1ccncc1 , IC50 read as 69

// field: IC50; key: O=C(Nc1ccc(C(F)(F)F)cc1)c1nnnn1CCc1ccncc1 ; value = 850

Would you mind giving IC50 for every compound in the list below?
1. O=C(Nc1ccc(OC(F)(F)F)cc1)c1ccnn1CCc1ccncc1
2. O=C(Nc1ccc(Cl)cc1)c1ccnn1CCc1ccncc1

1. 28
2. 77

====

Provide the recorded Papp for the entries that follow.
- assay.details: Passive diffusion assessed as intrinsic permeability across Caco-2 cell membrane
- Type: ADME, cell-based
- experimental.context: human, read-out: permeability (converted)
Numbers only, in ×10⁻⁶ cm/s.

Sample answers from the record:
Notebook: CCc1ccc(NC(=O)c2ccnn2CCc2ccncc2)cc1 , Papp read as 9.7

Given item O=C(Nc1cccc(OC(F)(F)Cl)c1)c1ccnn1CCc1ccncc1 , the value recorded as its Papp is 4.73

// Papp value for O=C(Nc1ccc(C(F)(F)F)cc1)c1ccnn1CCc1ccncc1 : 6.42

CC(C)(C)c1ccc(NC(=O)c2ccnn2CCc2ccncc2)cc1 yielded Papp of 7.43

response.value for O=C(Nc1ccc(C(F)(F)F)c(Cl)c1)c1ccnn1CCc1ccncc1 (field: Papp) = 4.6

Required: Papp, one value per molecule below.
1. O=C(Nc1ccc(Cl)cc1)c1ccnn1CCc1ccncc1
2. O=C(Nc1ccc(OC(F)(F)F)cc1)c1ccnn1CCc1ccncc1
3. CC(C)c1ccc(NC(=O)c2ccnn2CCc2ccncc2)cc1

1. 6.95
2. 7.03
3. 8.18
